system: Fibroblast; experiment: Multiplex assay against human fibroblast; type: toxicity, cell-based; conditions: 24 h, 1 µM, compound concentration 1 uM, replicate 2
readout: Population Tubulin-Different-Phenotype (%)
Please state the figure in %; there is no need to write the unit.

The recorded Population Tubulin-Different-Phenotype (%) for `CCc1cccc(CC)c1NC(=O)c1nn(C)c2c1CCc1cnc(Nc3ccc(N4CCN(C)CC4)cc3OC)nc1-2` is 100

The recorded Population Tubulin-Different-Phenotype (%) for `O=C(Nc1cccnn1)N1CCC(=Cc2cccc(Oc3ccc(C(F)(F)F)cn3)c2)CC1` is 38

The recorded Population Tubulin-Different-Phenotype (%) for CN(C)C(=O)C(CCN1CCC(O)(c2ccc(Cl)cc2)CC1)(c1ccccc1)c1ccccc1.Cl [LOPERAMIDE HYDROCHLORIDE] is 62

The recorded Population Tubulin-Different-Phenotype (%) for `O=C(Nc1ccc(Cl)cc1)Nc1cccc(-c2cccc(N3CCCC3)n2)c1` is 12

The recorded Population Tubulin-Different-Phenotype (%) for `O=C1N/C(=N/c2ccccc2F)S/C1=C\c1ccc(C(=O)O)cc1` is 23

The recorded Population Tubulin-Different-Phenotype (%) for COc1cc2ncnc(Nc3ccc(F)c(Cl)c3)c2cc1NC(=O)/C=C/CN1CCCCC1 [DACOMITINIB ANHYDROUS] is 16

###

tested on: HEK-293T; test: Multiplex assay against HEK293T; assay type: toxicity, cell-based; conditions: human, 24 h, 1 µM, compound concentration 1 uM, replicate 2
Grouping by measured Population Hoechst High Intensity Objects (%) is done with the following cut points: class 0: < 3%; class 1: ≥ 3% and < 5%; class 2: ≥ 5%

Query string: For this compound, which bin applies? CCOc1cc2ncc(C#N)c(Nc3ccc(OCc4ccccn4)c(Cl)c3)c2cc1NC(=O)/C=C/CN(C)C [NERATINIB]
Result string: class 2

Query string: For this compound, which bin applies? `S=C(NCCCc1c[nH]cn1)NCCCN(Cc1ccc(Cl)c(Cl)c1)c1ccc(Br)cn1`
Result string: class 2

Query string: For this compound, which bin applies? `COc1ccc(S(=O)(=O)N(CCO)c2ccccc2CN(C)C/C=C/c2ccc(Cl)cc2)cc1.O=P(O)(O)O`
Result string: class 2

Query string: For this compound, which bin applies? COc1cccc2cc(-c3nc([C@H]4CC[C@H](C(=O)O)CC4)n4ncnc(N)c34)[nH]c12 [OSI-027]
Result string: class 2

Query string: For this compound, which bin applies? CN1C2CCC1CC(OC(c1ccc(F)cc1)c1ccc(F)cc1)C2.Cl (stereo not drawn)
Result string: class 0

Query string: For this compound, which bin applies? O=C(Nc1ccc(-n2nc(-c3cccnc3)cc2C(F)(F)F)cn1)c1ccc(-c2ccccc2)c(F)c1 [BI 2049]
Result string: class 1

Query string: For this compound, which bin applies? CCCn1c(=O)c2[nH]c(-c3cnn(Cc4cccc(C(F)(F)F)c4)c3)nc2n(CC)c1=O [GS 6201]
Result string: class 0

Query string: For this compound, which bin applies? Cn1nc(C(F)(F)F)cc1-c1cnc(N2CCc3cc(S(=O)(=O)Nc4c(F)cc(Cl)cc4F)cc(N4CCCC4=O)c32)nc1 [TP-020]
Result string: class 0

Query string: For this compound, which bin applies? `CCc1cccc(CC)c1NC(=O)c1nn(C)c2c1CCc1cnc(Nc3ccc(C(=O)NC4CCN(C)CC4)cc3OC(F)(F)F)nc1-2`
Result string: class 1

Query string: For this compound, which bin applies? `CCc1cccc(CC)c1NC(=O)c1nn(C)c2c1CCc1cnc(Nc3ccc(N4CCN(C)CC4)cc3OC)nc1-2`
Result string: class 2

Query string: For this compound, which bin applies? `CCn1c(=O)c(-c2ccc(-c3cncs3)cc2Cl)cc2cnc(Nc3ccc(N4CCN(C)CC4)cc3)nc21`
Result string: class 0
